Where these numbers come from: ChEMBL document CHEMBL2040760

target or system: Peroxisome proliferator-activated receptor gamma (Homo sapiens)
Sequence (P37231 whole entry): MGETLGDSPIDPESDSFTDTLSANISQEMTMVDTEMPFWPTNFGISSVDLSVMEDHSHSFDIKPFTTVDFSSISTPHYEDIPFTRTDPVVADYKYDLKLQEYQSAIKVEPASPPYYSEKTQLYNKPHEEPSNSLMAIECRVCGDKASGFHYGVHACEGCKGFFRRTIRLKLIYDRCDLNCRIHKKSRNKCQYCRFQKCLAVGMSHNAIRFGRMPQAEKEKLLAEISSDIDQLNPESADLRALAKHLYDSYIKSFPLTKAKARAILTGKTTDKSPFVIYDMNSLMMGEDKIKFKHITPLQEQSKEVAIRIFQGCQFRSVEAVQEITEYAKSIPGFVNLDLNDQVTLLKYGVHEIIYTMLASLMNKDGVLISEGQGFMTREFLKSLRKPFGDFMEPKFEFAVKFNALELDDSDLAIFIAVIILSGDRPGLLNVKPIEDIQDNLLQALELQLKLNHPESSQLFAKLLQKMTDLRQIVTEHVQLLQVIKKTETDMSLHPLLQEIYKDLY
measurement notes: Modulation of full-length human pSG5-fused PPARgamma expressed in MG-63 cells co-expressing pGV-P2-PPRE after 24 hrs by luciferase reporter gene based transactivation assay
Assay type: cell-based
quantity name: EC50 (nM)

[[record]]
chemical_structure = "COc1cc(O)c2c(c1C(=O)NCc1c(C)cc(F)c3ccccc13)OC1=CC(O)=C(C(C)=O)C(=O)[C@]12C"
experimental_value = 4.8

[[record]]
chemical_structure = "COc1cc(O)c2c(c1C(=O)NCc1c(C)ccc3ccc(F)cc13)OC1=CC(O)=C(C(C)=O)C(=O)[C@]12C"
experimental_value = 65

[[record]]
chemical_structure = "COc1cc(O)c2c(c1C(=O)NCc1cccc3ccccc13)OC1=CC(O)=C(C(C)=O)C(=O)[C@]12C"
experimental_value = 180

[[record]]
chemical_structure = "COc1cc(O)c2c(c1C(=O)NCc1c(C)ccc3ccccc13)OC1=CC(O)=C(C(C)=O)C(=O)[C@]12C"
experimental_value = 28

[[record]]
chemical_structure = "COc1cc(O)c2c(c1C(=O)NCc1c(C)ccc3c(Cl)cccc13)OC1=CC(O)=C(C(C)=O)C(=O)[C@]12C"
experimental_value = 170

[[record]]
chemical_structure = "COc1cc(O)c2c(c1C(=O)NCc1c(C)cc(Cl)c3ccccc13)OC1=CC(O)=C(C(C)=O)C(=O)[C@]12C"
experimental_value = 22

[[record]]
chemical_structure = "COc1cc(O)c2c(c1C(=O)NCc1c(C)ccc3ccc(Cl)cc13)OC1=CC(O)=C(C(C)=O)C(=O)[C@]12C"
experimental_value = 4.9

[[record]]
chemical_structure = "CCCc1ccc2ccccc2c1CNC(=O)c1c(OC)cc(O)c2c1OC1=CC(O)=C(C(C)=O)C(=O)[C@]12C"
experimental_value = 43

[[record]]
chemical_structure = "CCCCc1ccc2ccccc2c1CNC(=O)c1c(OC)cc(O)c2c1OC1=CC(O)=C(C(C)=O)C(=O)[C@]12C"
experimental_value = 59

[[record]]
chemical_structure = "CCc1cc(F)c2ccccc2c1CNC(=O)c1c(OC)cc(O)c2c1OC1=CC(O)=C(C(C)=O)C(=O)[C@]12C"
experimental_value = 0.94


[I] COc1cc(O)c2c(c1C(=O)NCc1c(C)ccc3cc(F)ccc13)OC1=CC(O)=C(C(C)=O)C(=O)[C@]12C
[II] COc1cc(O)c2c(c1C(=O)NCc1c(C)ccc3c(F)cccc13)OC1=CC(O)=C(C(C)=O)C(=O)[C@]12C
// select label with min value of measured EC50 from [ I , II ] Return value: the label identifying the chosen record. II
